- testProtocol: Stability indicating HPLC assay and related substances on storage (Example 3)
- Assay type: physicochemical
- statedConditions: 3 months, 40° C./75% RH
reportedProperty: Known Related Substances HN33177

compound: CN1CC[C@]23c4c5ccc(O)c4O[C@H]2[C@@H](O[C@@H]2O[C@H](C(=O)O)[C@@H](O)[C@H](O)[C@H]2O)C=C[C@H]3[C@H]1C5.Cl [Morphine-6-glucuronide hydrochloride]
result: 0.07%

compound: CN1CCC23c4c5ccc(O)c4OC2C(OC2OC(C(=O)O)C(O)C(O)C2O)C=CC3C1C5.CN1CCC23c4c5ccc(O)c4OC2C(OC2OC(C(=O)O)C(O)C(O)C2O)C=CC3C1C5.O=C(O)C=CC(=O)O (stereo not shown) [Morphine-6-glucuronide maleate]
result: 0.50%

compound: Br.CN1CC[C@]23c4c5ccc(O)c4O[C@H]2[C@@H](O[C@@H]2O[C@H](C(=O)O)[C@@H](O)[C@H](O)[C@H]2O)C=C[C@H]3[C@H]1C5 [Morphine-6-glucuronide hydrobromide]
result: 0.70%

compound: CN1CC[C@]23c4c5ccc(O)c4O[C@H]2[C@@H](O[C@@H]2O[C@H](C(=O)O)[C@@H](O)[C@H](O)[C@H]2O)C=C[C@H]3[C@H]1C5 [Morphine-6-glucuronide base, morphine-6-β-D-glucuronide]
result: 0.95%

compound: CN1CCC23c4c5ccc(O)c4OC2C(OC2OC(C(=O)O)C(O)C(O)C2O)C=CC3C1C5.O=P(O)(O)O (stereo not shown) [Morphine-6-glucuronide phosphate]
result: 0.59%

compound: CN1CCC23c4c5ccc(O)c4OC2C(OC2OC(C(=O)O)C(O)C(O)C2O)C=CC3C1C5.CN1CCC23c4c5ccc(O)c4OC2C(OC2OC(C(=O)O)C(O)C(O)C2O)C=CC3C1C5.O=S(=O)(O)O (stereo not shown) [Morphine-6-glucuronide sulphate]
result: 0.23%

compound: CN1CCC23c4c5ccc(O)c4OC2C(OC2OC(C(=O)O)C(O)C(O)C2O)C=CC3C1C5.CN1CCC23c4c5ccc(O)c4OC2C(OC2OC(C(=O)O)C(O)C(O)C2O)C=CC3C1C5.O=C(O)C=CC(=O)O (stereo not shown) [Morphine-6-glucuronide fumarate]
result: 0.57%

* * *

- testProtocol: Water content by Karl Fisher analysis on storage (Example 3)
- Assay type: physicochemical
- statedConditions: 1 month, 40° C./75% RH
y if Moisture is below 6 % w/w. n if not; exact matches included in n.

compound: CN1CCC23c4c5ccc(O)c4OC2C(OC2OC(C(=O)O)C(O)C(O)C2O)C=CC3C1C5.CN1CCC23c4c5ccc(O)c4OC2C(OC2OC(C(=O)O)C(O)C(O)C2O)C=CC3C1C5.O=C(O)C=CC(=O)O (stereo not shown) [Morphine-6-glucuronide maleate]
assignedClass: n
--
compound: Br.CN1CC[C@]23c4c5ccc(O)c4O[C@H]2[C@@H](O[C@@H]2O[C@H](C(=O)O)[C@@H](O)[C@H](O)[C@H]2O)C=C[C@H]3[C@H]1C5 [Morphine-6-glucuronide hydrobromide]
assignedClass: y
--
compound: CN1CC[C@]23c4c5ccc(O)c4O[C@H]2[C@@H](O[C@@H]2O[C@H](C(=O)O)[C@@H](O)[C@H](O)[C@H]2O)C=C[C@H]3[C@H]1C5 [Morphine-6-glucuronide base, morphine-6-β-D-glucuronide]
assignedClass: n
--
compound: CN1CC[C@]23c4c5ccc(O)c4O[C@H]2[C@@H](O[C@@H]2O[C@H](C(=O)O)[C@@H](O)[C@H](O)[C@H]2O)C=C[C@H]3[C@H]1C5.Cl [Morphine-6-glucuronide hydrochloride]
assignedClass: n
--
compound: CN1CCC23c4c5ccc(O)c4OC2C(OC2OC(C(=O)O)C(O)C(O)C2O)C=CC3C1C5.CN1CCC23c4c5ccc(O)c4OC2C(OC2OC(C(=O)O)C(O)C(O)C2O)C=CC3C1C5.O=C(O)C=CC(=O)O (stereo not shown) [Morphine-6-glucuronide fumarate]
assignedClass: n
--
compound: CN1CCC23c4c5ccc(O)c4OC2C(OC2OC(C(=O)O)C(O)C(O)C2O)C=CC3C1C5.O=P(O)(O)O (stereo not shown) [Morphine-6-glucuronide phosphate]
assignedClass: n
